For each of the compounds below, state its EC50.
assay-info: Cytotoxicity against human Col2 cells after 72 hrs by sulforhodamine B assay
experimental-context: Col2, 72 h, read-out: ED50 (the source's name)
Remember to put the unit after the number in your answer.

Req: So what's the measured EC50 for this one? CCCC[C@H](O)/C=C\[C@@H]1OC(=O)C=C[C@@H]1OC(C)=O [PECTINOLIDE B]
Resp: 1.1 µg/mL

Req: // query: CCCC[C@@H](/C=C\[C@@H]1OC(=O)C=C[C@@H]1O)OC(C)=O [PECTINOLIDE C]
Resp: 1.6 µg/mL

Req: // query: CCCC[C@H](OC(C)=O)[C@@H](O)[C@H](O)[C@@H]1OC(=O)C=C[C@@H]1OC(C)=O
Resp: 5.1 µg/mL

Req: // query: CCCC[C@@H](/C=C\[C@@H]1OC(=O)C=C[C@@H]1OC(C)=O)OC(C)=O [PECTINOLIDE A]
Resp: 1 µg/mL

---

For each of the compounds below, state its EC50.
Test system: SK-MEL-2
assay-info: Cytotoxicity against human SK-MEL-2 cells after 72 hrs by sulforhodamine B assay
Type: functional
experimental-context: SK-MEL-2, 72 h, read-out: ED50 (the source's name)
Provide only the numeric value, understood in µg/mL.

Req: So what's the measured EC50 for this one? CCCC[C@H](O)/C=C\[C@@H]1OC(=O)C=C[C@@H]1OC(C)=O [PECTINOLIDE B]
Resp: 2.2

Req: // query: CC(=O)O[C@@H](C)[C@@H](/C=C/[C@@H]1O[C@@H]1[C@H]1CC=CC(=O)O1)OC(C)=O
Resp: 4.1

Req: // query: CCCC[C@@H](/C=C\[C@@H]1OC(=O)C=C[C@@H]1O)OC(C)=O [PECTINOLIDE C]
Resp: 3.3

Req: // query: CCCC[C@@H](/C=C\[C@@H]1OC(=O)C=C[C@@H]1OC(C)=O)OC(C)=O [PECTINOLIDE A]
Resp: 0.7

Req: // query: CCCC[C@H](OC(C)=O)[C@@H](OC(C)=O)[C@H](OC(C)=O)[C@H]1CC=CC(=O)O1 [BORONOLIDE]
Resp: 3.3

Req: // query: CC(=O)O[C@H](/C=C\[C@H]1CC=CC(=O)O1)C[C@@H](OC(C)=O)[C@H](C)OC(C)=O [HYPTOLIDE]
Resp: 12.2

Req: // query: CCCC[C@H](OC(C)=O)[C@@H](OC(C)=O)[C@H](OC(C)=O)[C@@H]1OC(=O)C=C[C@@H]1OC(C)=O
Resp: 4.5

Req: // query: CCCC[C@H](OC(C)=O)[C@@H](O)[C@H](O)[C@@H]1OC(=O)C=C[C@@H]1OC(C)=O
Resp: 6

---

Tested on: A-431
assay-info: Cytotoxicity against human A431 cells after 72 hrs by sulforhodamine B assay
Format: functional
experimental-context: A-431, 72 h, read-out: ED50 (the source's name)
recorded-endpoint: log10 of EC50 (log10 of the value in µg/mL)
Please note: log10 values; quantity EC50; unit µg/mL.

Req: So what's the measured log10 of EC50 for this one? CCCC[C@@H](/C=C\[C@@H]1OC(=O)C=C[C@@H]1O)OC(C)=O [PECTINOLIDE C]
Resp: -0.10

Req: // query: CCCC[C@H](OC(C)=O)[C@@H](O)[C@H](O)[C@@H]1OC(=O)C=C[C@@H]1OC(C)=O
Resp: 0.65

Req: // query: CC(=O)O[C@@H](C)[C@@H](/C=C/[C@@H]1O[C@@H]1[C@H]1CC=CC(=O)O1)OC(C)=O
Resp: 0.28

Req: // query: CCCC[C@H](OC(C)=O)[C@@H](OC(C)=O)[C@H](OC(C)=O)[C@H]1CC=CC(=O)O1 [BORONOLIDE]
Resp: 0.81

Req: // query: CC(=O)O[C@H](/C=C\[C@H]1CC=CC(=O)O1)C[C@@H](OC(C)=O)[C@H](C)OC(C)=O [HYPTOLIDE]
Resp: 0.57

Req: // query: CCCC[C@H](OC(C)=O)[C@@H](OC(C)=O)[C@H](OC(C)=O)[C@@H]1OC(=O)C=C[C@@H]1OC(C)=O
Resp: 0.41

Req: // query: CCCC[C@H](O)/C=C\[C@@H]1OC(=O)C=C[C@@H]1OC(C)=O [PECTINOLIDE B]
Resp: -0.22

Req: // query: CCCC[C@@H](/C=C\[C@@H]1OC(=O)C=C[C@@H]1OC(C)=O)OC(C)=O [PECTINOLIDE A]
Resp: 0.15

---

For each of the compounds below, state its EC50.
assay-info: Cytotoxicity against vinblastine-resistant human KBV1 cells after 72 hrs by sulforhodamine B assay
Type: functional
experimental-context: KB-V1, 72 h, read-out: ED50 (the source's name)
Provide only the numeric value, understood in µg/mL.

Req: So what's the measured EC50 for this one? CC(=O)O[C@@H](C)[C@@H](/C=C/[C@@H]1O[C@@H]1[C@H]1CC=CC(=O)O1)OC(C)=O
Resp: 3.4

Req: // query: CCCC[C@@H](/C=C\[C@@H]1OC(=O)C=C[C@@H]1O)OC(C)=O [PECTINOLIDE C]
Resp: 3.2

Req: // query: CCCC[C@@H](/C=C\[C@@H]1OC(=O)C=C[C@@H]1OC(C)=O)OC(C)=O [PECTINOLIDE A]
Resp: 1.8

Req: // query: CCCC[C@H](OC(C)=O)[C@@H](OC(C)=O)[C@H](OC(C)=O)[C@@H]1OC(=O)C=C[C@@H]1OC(C)=O
Resp: 6.3

---

For each of the compounds below, state its EC50.
assay-info: Cytotoxicity against vinblastine-resistant human KBV1 cells after 72 hrs by sulforhodamine B assay
Format: functional
experimental-context: KB-V1, 72 h, read-out: ED50 (the source's name)

Req: So what's the measured EC50 for this one? CCCC[C@@H](/C=C\[C@@H]1OC(=O)C[C@@H](OC)[C@@H]1O)OC(C)=O
Resp: > 20 µg/mL

Req: // query: CCCC[C@H](OC(C)=O)[C@@H](O)[C@H](O)[C@@H]1OC(=O)C=C[C@@H]1OC(C)=O
Resp: > 20 µg/mL

Req: // query: CCCC[C@H](OC(C)=O)[C@@H](OC(C)=O)[C@H](OC(C)=O)[C@H]1CC=CC(=O)O1 [BORONOLIDE]
Resp: 8.6 µg/mL

Req: // query: CCCC[C@H](O)/C=C\[C@@H]1OC(=O)C=C[C@@H]1OC(C)=O [PECTINOLIDE B]
Resp: 2 µg/mL

Req: // query: CC(=O)O[C@H](/C=C\[C@H]1CC=CC(=O)O1)C[C@@H](OC(C)=O)[C@H](C)OC(C)=O [HYPTOLIDE]
Resp: 4.5 µg/mL
